MEASURED TARGET: Calcium-dependent protein kinase 4 (Plasmodium falciparum (isolate 3D7))
MEASUREMENT PROTOCOL: PfCDPK4 kinase inhibitors, biochemical, TCAMS library (AID 1159588)
ASSAY CONDITIONS: recombinant PfCDPK4, Kinase-Glo ATP depletion luminescence
Measured potencies and affinities stand elsewhere. The source made the active and inactive calls. No cut-off is given here; in the data, nearly all actives have IC50 up to about 0.91 µM.
PROPERTY LABEL: outcome

The cases that follow already have their outcome on record.
COc1cc(Nc2nccc(Nc3ccc4c(C)[nH]nc4c3)n2)cc2ccccc12	inactive
CN(C)C(=O)CCCn1c(CNCCCNc2cc(=O)c3ccccc3[nH]2)cc2c(Cl)cc(Cl)cc21	inactive
Oc1ccc(Nc2nc(NCc3ccccc3)c3ccccc3n2)cc1	inactive
O=C(/C=C/c1ccc(Cl)c(Cl)c1)NCCCCCCN1CCCN(C(=O)Nc2ccc(Cl)c(C(F)(F)F)c2)CC1	inactive
Cc1cc(Br)cnc1CCCCN=C1NC(=O)CN1C	inactive

# batch: return outcome for each of the 4 molecules below
1. CN1CCCN(Cc2cccc(-c3ccc(NS(=O)(=O)c4cccc5cccnc45)cc3)c2)CC1
2. O=C(NC1CCC(N2CCC(O)(c3ccc(F)cc3)CC2)CC1)c1cc2ccccc2[nH]1 (centres undefined)
3. CCc1ccc(NC(=O)c2ccc(CN3CCCN(Cc4cccc(Cl)c4)CC3)cc2)cc1
4. CCCCOC(=O)C1=C(C)NC2=C(C(=O)CC(c3ccc(OC)c(OC)c3)C2)C1c1ccc(O)cc1 (centres undefined)

Output line:
inactive
inactive
inactive
inactive

# batch: return outcome for each of the 8 molecules below
1. Cc1cccc(OC2CCN(c3ncc(C(=O)NCCCN4CCCC4=O)cc3Cl)CC2)c1
2. O=S(=O)(NCCN1CCCC1)c1cccc(-c2ccc(CNCc3ccsc3)cc2)c1
3. COc1ccc2ncc(F)c(CCN3C[C@@H]4CCC[C@]4(CNCc4ccc5c(n4)NC(=O)CS5)C3)c2n1
4. NC(N)=Nc1ccc(OCCCCCOc2ccc(N=C(N)N)cc2)cc1
5. O[C@@H](c1ccccc1)[C@@H]1CN(CCC2C[C@@H]3CC[C@H]2C3)CC[C@@]1(O)c1ccccc1 (some centres undefined)
6. COC1CCC(C(=O)Nc2ccc(-c3cccc(-c4nc5ccc(C(F)(F)F)cc5[nH]4)c3)cc2)CC1 (centres undefined)
7. CS(=O)(=O)NCCCNCc1ccc(-c2cccc(-c3nc4ccc(F)cc4[nH]3)c2)cc1
8. CN1CCCN(Cc2cccc(-c3cccc(NC(=O)c4ccc(Cl)cc4)c3)c2)CC1

Output line:
inactive
inactive
inactive
inactive
inactive
inactive
inactive
inactive

# batch: return outcome for each of the 2 molecules below
1. N#Cc1cccc(NC(=O)c2cccc(S(=O)(=O)NC3CCN(CC4CCCCC4)C3)c2)c1 (centres undefined)
2. C=CCOC(=O)N1CCC(CNCc2cccc(-c3cccc(-c4nc5c(C)cccc5[nH]4)c3)c2)C1 (centres undefined)

Output line:
inactive
inactive
